- target-or-system: glycine binding site (NMDA receptor)
- protocol-summary: 3-H-glycine binding to frontal cortex membranes
- measurement-parameters: 4 nM 3-H-glycine, washed guinea pig frontal cortex membranes, 30 min on ice; read-out: IC50 for displacement of glycine
assay-endpoint: pIC50
Interpret pIC50 as the negative base-10 log of the concentration measured in mol/L.

[ask] Param item = N#Cc1cc2[nH]c(=O)c(=O)[nH]c2cc1[N+](=O)[O-] [CNQX, 6-cyano-7-nitroquinoxaline 2,3-dione] ; retrieve measured pIC50.
[reply] 5.24
